Source of measurements: the NTF2 design screens of Basanta et al. (2020)

protocol: protease stability score; higher = more stable; yeast display proteolysis, trypsin and chymotrypsin
In this section, each of the sequences is paired with its reported protease stability score.
Number only, no unit.

# example entries with known answers
DEHDMAHKFFHDLVEAAKTGDRDKIKRLADPNVKIEYGDKRLHGHKDYANFIQKIVERVDSVNFQLQSVSVTGDKVRMIYTLDVVENGQKRTDRLQIEAQIHNGDIIAKRVVEG
0.873
DSREAKRAETFFRLVQRGDSRKLQEYMDPNARINIGEKRIHGRENYAKEVKDRREHIRVDIKSLEASDTNGRIHVEVHFEHSHNGRPDQQTMELRITMHNGRAQEITQHETK
-0.223

Query: Entry DEEQVEHMRRIVQEGDFDELKDNADPNARVQVGDKRYHGREQVQHVMKNFRDKADHVEISSIKQDEDHVSAEMHVEVNGERFVIRIHFVVHNGRLEQINIQVTSERDQKKLKKMLD needs its protease stability score filled in; supply it.
Reply: 0.185

Query: Complete the entry with protease stability score for DEEKHAKEVLDKFLKIAQEGDPKKMHELVDPNATFQVGDKEVHGRESAIESLQKFLEKVDHMRLEITEVRVRGNKFNIVAKLRADINGQKVDKRLIIVFTHHNGRLQMSHLRMD
Reply: 2.34

----------
protocol: protease stability score; higher = more stable; yeast display proteolysis, trypsin and chymotrypsin
quantity_measured: protease stability score

DEEKHAKEMADRFRKILDNGNEHSVEKMFDENARMSVGDRTIHGREKIAKKLITDVRRVDHLQVKVLSYHAHGDKIDLKVQQTLVVNGEDETRRYQMHLTRVNGRFVAVDAREQ
-0.07
DERAADAIERLLKAMKDNDPSELSKQADENVHFDVGEKKYHGMETYARTVAKERHDAEQTYRLKDYRVDENHVSFNMRVVQTNNGKPVDVEAILRANVKGDKVKSMRIDEHK
-0.23

Query: Quick one: give measured protease stability score for DEKRFTELAEKAFKIIMNGNEEEARKMGKPNVEYKYGDKEFEGEEAMQYAVQLVIKVGAEAKVRRMEVRGDTMRADFQYTLGDKTVQTTAQVQYEGDYAKKAENELSDEAKKIMHQG
Reply: 0.434

Query: Provide only the value of recorded protease stability score for DENELELYKEVVEAENTGDPDEMKELVDPNVNVQVGDTTLHGMSELVKDAKRRRKQMRVDIKVTSMKAHNGRLEIRLEVVFEVNGRPTSDTITVTVHAHNGKVKEFNYHMDPDREKRQRS
Reply: 1.03

Query: Specify reported protease stability score for the sequence shown: DDEQDRDFVQTMREAIDRGDFKKIARMADKDVKVVIGDKNVTGRETLTHLLKDFVDKFDHIRVRHIDAHNGSVDIDMTADHNGDKRQYRIRVNVSNGQVKEFQLKQT
Reply: 0.453

----------
protocol: protease stability score; higher = more stable; yeast display proteolysis, trypsin and chymotrypsin;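 further: log10 excess protease needed over predicted unfolded state with 0 meaning unfolded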
quantity_measured: protease stability score
Response field accepts a number only; no unit should be typed.

As a guide, the following entries are already answered.
DQELRDQVERLLHLEKHGDNDEVLRQFDPNAKAQVGDTRYHGMTTAVRDMVRQQNEARFSFEIHHVSVSGDRVVIDAVYVKDHNGKPSTRRVHIQMHFRNGKVQERRQNDDG
0.782
DREMLKDVKRLLEVINKGNEDEMRKMVDPNAKFVIGDKEITGREEFAKQMKRHKDEIRIDIKVKHLTAKGNRATVRATATRDHNGQPQSFKVTMRVTFSNGKVKKVHYDYTK
0.065
DEEVANTAVKVAQTGDFQQMVEHADPNVRAVVGDKEYHGREQFQEAMTIIRERVDHYHVDKITIEGDDVRVDMQIDFNGRRVRAEVSIRASNGRIKEMHINARDEDDHRTLRKLLK
0.432

Could you now look at the following sequence, please?
Query: Identify the reported protease stability score for the following entry. DEEEKAREYNKTIRQVWHDNNEEDMMRLADENARLEYGDKQLHGRENFRKRQHDIHRRVDKVDVDVKRVEVHNGKFKAQFTFTLVSNGENNKRLYILVAQLHGDKFRIKQIVEQ
Reply: 0.099

----------
protocol: protease stability score; higher = more stable; yeast display proteolysis, trypsin and chymotrypsin;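 further: log10 excess protease needed over predicted unfolded state with 0 meaning unfolded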
Mark not fulfilled for protease stability score values under -0.1, and fulfilled for everything at or above.

DDHAADVMRKWFEALSSGNPDQAKKNLDPNAKVQIGDKTLHGREQVSQHVREQKEEIRFEIQSVDVRKEPGQVTVTMVYVSHFNGQPRRDTDTFFADVHGDKIKSVHIRVDEKQKQRERD
not fulfilled
DHERLRKLAKDFVKILKHGDPDRMRELVDKDVRVQIGDKEVHGREKVDEMVENIRHRADHIDFTSFHASNGRVTVDVVVNVDGKNTRVTWRIVMSNGRVKMIQVTDG
fulfilled
DEEDDRRTAKRFAENVMKGNQDEARKLADEDATVNVGDQHVHGREELARVMHDLRRQVDHIQLDSLEVQGNKADINVTMRVNGRHVTADITVTVHNGRVKQFSLNPEVAQEIKR
not fulfilled
EDENRSNIEDMIRAWNQNNPDEWRELADPNVKVQIGEKSIRGREEIAKDLKQMHKEIEVHFNLKRVRVQGDKAEVEMEFSNNHNGKPRSDNVVYDVLVDNGRIKSVKQNQVS
not fulfilled
DEEAETVLKRWLTALRENDPQQAADLADPHAQFQIGEKTIRGREDLKRFMDEMLHHLRVDFTIDHVKVTGETVVVHFTVEFNVNGRPLRFEVVLVVKAENGKVKQLEQHMDDDQWRQVKS
fulfilled

Query: Please tell me: is the sequence DEKKIKEYVHELNRAFQNGDEDRLNQMMDKNVRAQYGDKEYHGRENAKKVMKDFRDQFDHLEIHSVNVRGDRVDIEAEAHNNGRTEHWIITIRLHNGHMTSIVIRKS at or over -0.1 in terms of protease stability score?
Reply: not fulfilled

Query: Does DHDALRHATEILRARKTGDDKRIRELVDPNAHVVIGDKSLHGREQIVKFVTKENEEMSIQYRHVSTETRNGRVDIRMDADMRKNGTPDRVRQEMKAEFHNGRLQRMSVHDDK have a reported protease stability score of at least -0.1?
Reply: not fulfilled

Query: Quick check: does DDHLRREAKKMVKNYVKGDPDKVMEYVDPNATVNVGDKNIRGRESVREWVKTQKDQMRIQLTSMRVDASNGRVKISLDFRLNDNGKPDRVTVDIKLNMRNGRVQHVNIQTHK have protease stability score greater than or equal to -0.1?
Reply: fulfilled

----------
protocol: protease stability score; higher = more stable; yeast display proteolysis, trypsin and chymotrypsin;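 further: log10 excess protease needed over predicted unfolded state with 0 meaning unfolded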
quantity_measured: protease stability score
API note: the answer field is a bare number with no unit suffix.

Examples from the recorded data:
DEEDEARTMADRIRHALENGDEQKFAEQADPNASVRIGDRTWHGRRQISNRLKEERERADHVELEIKSIKLHGDRVKIDFVLEQDINGRHETTQLTMTAELHNGNVRFKMMKEK
-0.332
DEERLQKIIEKAFKVIQNGNKEEAQKLGKPNVEYHYLDKTLHGPKAVEHAVEHVKKVGAEVKQQEIEVHGGTAKAVFQYHVGDKTVQTTAEVTYEGDKMKKARVKISEEVKKMMHRG
-0.076

With those in mind, consider the next sequence.
Query: Please give measured protease stability score of the following entry: DEEALKQAEEILTQRQTGNPQEVMKNMDKNVKFDYGDKTIHGKENLEKDVEKERTEMRYEIKSVEFRARGNKVVADFRATFNVNGHPFSVRVVFIAHFEDGKIKKATENVSEEQRKKMKS
Reply: 0.084

----------
protocol: protease stability score; higher = more stable; yeast display proteolysis, trypsin and chymotrypsin;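 further: log10 excess protease needed over predicted unfolded state with 0 meaning unfolded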
Recorded protease stability score by entry
// no unit string in output, number only

Look over these answered cases.
DERELDNASRVATNIATGDEEKVVKLADENAKLNVGDNEVHGTEQATREVKKTQNDLRRNVESFEIDKNGNHARLEATVYQTVNGKPVRYKMSAEVHVHNGRVTKVDVQMDHRLLQRNKK
-0.037
DEEDLKRLREMHKAVSRGDPRQIQENMDPNVRVQYGDKTIHGREHIASELITKMKHWRLDFKRYHATVTPNRVQVHIDYIERHNGKPHKNKNKAEAEVDNGKIKRYQQSSDG
-0.03
DEEVHKAITHYIEALHKGDPDRAANQMDENVRIEIGDKSITGREHAKHHLERLFKQMEFRITVDRVEVHNGTATAEIHWSSDRNGKPDSNTRRMTAEVHNGKIKQIVFKSDS
1.02
DSDQSKREMDKFLEMVSTGDPDEVNRLLDKDAHAHVGDQTYHGREEISHMWKELREKIDHLEVHDYKVNGNKLEVDMHATINGQNVVFTVVAVLRNGHFESVEVQYRSEEEEEKVKR
0.452

The record that follows has no protease stability score shown yet.
Query: Identify measured protease stability score associated with DETNRKQASRVLENLQTGDPRQVSELVDPNARVTVGDKQVTGRENIMQRVKHELDQSRIQIDHYEIDDKGESADLRMTQQVDHNGNPTRTKYQVEVEAENGKIKEITIEERS
Reply: -0.271
